Test: Cytotoxicity against human MCF7 cells assessed as growth inhibition after 72 hrs by CCK8 assay
Assay type: functional, cell-based
Settings: Homo sapiens, MCF7, 72 h; read-out: IC50
Would you kindly list IC50 for each of these compounds?

Below, 4 compounds whose answers are already recorded.
O=C1C(=O)N(Cc2cn(CC(=O)N3CCCC3)nn2)c2c(Cl)ccc(Cl)c21	62.4 µM
O=C(Cn1cc(CN2C(=O)C(=O)c3c(Cl)ccc(Cl)c32)nn1)NC1CCCCC1	51.8 µM
O=C1C(=O)N(Cc2cn(CC(=O)N3CCOCC3)nn2)c2c(Cl)ccc(Cl)c21	146 µM
O=c1[nH]cc(F)c(=O)[nH]1	13.2 µM

Now for a further compound.
Lookup: For the compound shown here, `O=C(Cn1cc(CN2C(=O)C(=O)c3c(Cl)ccc(Cl)c32)nn1)Nc1ccccc1` , give the reported IC50.
Found: 38.5 µM

====

Would you kindly list IC50 at 72 h for each of these molecules?
Assay: Cytotoxicity against human HL-7702 cells assessed as growth inhibition after 72 hrs by CCK8 assay
Type: toxicity, cell-based, L02
Settings: human, HL-7702 cells
Answers are plain numbers, in µM.

Provide reported IC50 at 72 h for each item, in the same order as listed.
1. O=C1C(=O)N(Cc2cn(CC(=O)N3CCCCC3)nn2)c2c(Cl)ccc(Cl)c21
2. O=C(Cn1cc(CN2C(=O)C(=O)c3c(Cl)ccc(Cl)c32)nn1)OC1CCCCC1
3. CC(C)(C)OC(=O)N1CCN(C(=O)Cn2cc(CN3C(=O)C(=O)c4c(Cl)ccc(Cl)c43)nn2)CC1
4. O=C(Cn1cc(CN2C(=O)C(=O)c3c(Cl)ccc(Cl)c32)nn1)Nc1ccccc1

Found:
39.3
40.3
42
24.9

====

Assay: Cytotoxicity against human HL-7702 cells assessed as growth inhibition after 72 hrs by CCK8 assay
Type: toxicity, cell-based, L02
Conditions: human, HL-7702 cells
measured-quantity: IC50 at 72 h (µM)
Numbers only, in µM.

O=C(Cn1cc(CN2C(=O)C(=O)c3c(Cl)ccc(Cl)c32)nn1)NC1CCCCC1	83.9

Now for a further compound.
Lookup: For the compound shown here, `O=c1[nH]cc(F)c(=O)[nH]1` , give the reported IC50 at 72 h.
Found: 12.8

====

Assay: Cytotoxicity against human MCF7 cells assessed as growth inhibition after 72 hrs by CCK8 assay
Assay type: functional, cell-based
Details: Homo sapiens, MCF7, 72 h; read-out: IC50
Would you kindly list IC50 for each of these compounds?
One number for each entry, in µM.

Below, 2 compounds whose answers are already recorded.
CC(C)(C)OC(=O)N1CCN(C(=O)Cn2cc(CN3C(=O)C(=O)c4c(Cl)ccc(Cl)c43)nn2)CC1	46.9
O=C(Cn1cc(CN2C(=O)C(=O)c3c(Cl)ccc(Cl)c32)nn1)OC1CCCCC1	18.9

Now for a further compound.
Lookup: For the compound shown here, `O=C1C(=O)N(Cc2cn(CC(=O)N3CCCCC3)nn2)c2c(Cl)ccc(Cl)c21` , give the reported IC50.
Found: 34.6
